Biological target: Muscarinic acetylcholine receptor M5 (Homo sapiens) (UniProt P08912)
Sequence (P08912 whole entry, looked up): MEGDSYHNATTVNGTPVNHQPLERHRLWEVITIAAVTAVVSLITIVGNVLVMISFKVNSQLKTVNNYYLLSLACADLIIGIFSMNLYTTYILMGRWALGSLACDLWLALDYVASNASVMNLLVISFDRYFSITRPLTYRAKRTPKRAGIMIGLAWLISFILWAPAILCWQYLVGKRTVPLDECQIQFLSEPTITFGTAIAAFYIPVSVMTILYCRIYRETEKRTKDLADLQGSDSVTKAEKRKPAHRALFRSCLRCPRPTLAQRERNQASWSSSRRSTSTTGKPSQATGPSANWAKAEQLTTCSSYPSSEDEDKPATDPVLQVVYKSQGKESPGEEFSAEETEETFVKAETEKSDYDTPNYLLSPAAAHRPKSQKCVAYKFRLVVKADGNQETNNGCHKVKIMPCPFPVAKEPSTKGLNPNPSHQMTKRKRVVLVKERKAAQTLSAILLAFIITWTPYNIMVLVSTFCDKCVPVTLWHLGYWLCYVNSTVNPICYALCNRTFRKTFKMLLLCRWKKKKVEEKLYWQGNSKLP
Assay: M5 muscarinic receptor negative allosteric modulators, dose response, cell-based, concentration-response curves, human M5 (AID 743026)
Details: CHO-K1 hM5, ACh EC80 calcium flux, Fluo-4
Listed here: items and their measured IC50.

Example cases with answers are listed next.
{"columns": ["MOLECULE", "IC50"],
 "data": [
  ["CSc1ccc(C23c4ccccc4C(=O)N2CCN3C(=O)c2ccc(F)c(F)c2)cc1 (stereo not given)", "1.51 µM"],
  ["O=C(c1ccc(SC(F)(F)F)cc1)N1CCN2C(=O)c3ccccc3C12c1ccc(Cl)cc1 (stereo not given)", "3.1 µM"],
  ["O=C(c1ccc(SC(F)(F)F)cc1)N1CCN2C(=O)c3ccccc3C12c1ccccc1 (stereo not given)", "1.39 µM"]
]}

Q: Find IC50 (Muscarinic acetylcholine receptor M5 (Homo sapiens) (UniProt P08912)) for the entry O=C(c1ccccc1)N1CCN2C(=O)c3ccccc3C12c1ccc(Cl)cc1 (stereo not given)
A: 1.63 µM

Q: # value lookup — system Muscarinic acetylcholine receptor M5 (Homo sapiens) (UniProt P08912), readout IC50, item C=CCOc1ccc(C23c4ccccc4C(=O)N2CCN3C(=O)c2ccc(F)c(F)c2)cc1 (stereo not given)
A: 8.93 µM

Q: Quick check: IC50 on Muscarinic acetylcholine receptor M5 (Homo sapiens) (UniProt P08912), item O=C(c1ccc(SC(F)(F)F)cc1)N1CCN2C(=O)c3ccccc3C12c1ccc(F)cc1 (stereo not given) ?
A: 1.29 µM

---

Target: Muscarinic acetylcholine receptor M5 (Homo sapiens) (UniProt P08912)
Assay: M5 muscarinic receptor negative allosteric modulators, dose response, cell-based, concentration-response curves, human M5 (AID 743026)
Conditions: CHO-K1 hM5, ACh EC80 calcium flux, Fluo-4
READOUT_LABEL: IC50

Sample records with IC50:
{"columns": ["COMPOUND", "IC50"],
 "data": [
  ["O=C(c1ccc(C(F)(F)F)cc1)N1CCN2C(=O)c3ccccc3C12c1ccccc1 (stereo not given)", "1950 nM"],
  ["O=C(c1ccc(C(F)(F)F)cc1)N1CCN2C(=O)c3ccccc3C12c1ccc(Cl)cc1 (stereo not given)", "2070 nM"],
  ["CC(C)Oc1ccc(C(=O)N2CCN3C(=O)c4ccccc4C23c2ccc(Cl)cc2)cc1 (stereo not given)", "790 nM"]
]}

Q: Provide value of IC50 for this record tested with Muscarinic acetylcholine receptor M5 (Homo sapiens) (UniProt P08912): O=C(c1ccc2c(c1)OCO2)N1CCN2C(=O)c3ccccc3C12c1ccc(Cl)cc1 (stereo not given)
A: 2120 nM

Q: Request - read-out IC50 | tested on Muscarinic acetylcholine receptor M5 (Homo sapiens) (UniProt P08912) | compound O=C(c1ccc(OC(F)F)cc1)N1CCN2C(=O)c3ccccc3C12c1ccc(Cl)cc1 (stereo not given)
A: 4900 nM

---

Molecular target: Muscarinic acetylcholine receptor M5 (Homo sapiens) (UniProt P08912)
Experiment: M5 muscarinic receptor negative allosteric modulators, dose response, cell-based, concentration-response curves, human M5 (AID 743026)
Settings: CHO-K1 hM5, ACh EC80 calcium flux, Fluo-4
READOUT_LABEL: IC50

Q: If you can, please state the reported IC50 value of Cc1ccc(C23c4ccccc4C(=O)N2CCN3C(=O)c2ccc(OC(F)(F)F)cc2)cc1 (stereo not given) .
A: 3470 nM

Q: Given the entry O=C(c1cccc(C(F)(F)F)c1)N1CCN2C(=O)c3ccccc3C12c1ccc(F)cc1 (stereo not given) , report its measured IC50.
A: 2090 nM

Q: // IC50 lookup, key: O=C(c1ccc(F)cc1)N1CCN2C(=O)c3ccccc3C12c1ccccc1 (stereo not given)
A: 3430 nM

Q: Record request: IC50 value, item COc1ccc(C23c4ccccc4C(=O)N2CCN3C(=O)c2ccc(F)c(F)c2)cc1 (stereo not given)
A: 1260 nM

Q: Look up IC50 for this compound: O=C(c1cc(F)cc(F)c1)N1CCN2C(=O)c3ccccc3C12c1ccc(Cl)cc1 (stereo not given)
A: 1070 nM
